The values you see were collected from ChEMBL document CHEMBL3865815.

Assay: Antiproliferative activity against human K562 cells after 72 hrs by MTT assay
Type: functional, cell-based
Conditions: K562, 72 h
pIC50: −log10 of the molar value.
MEASUREMENT_TYPE: pIC50

molecular_string=CC[C@]1(O)C[C@H]2CN(CCc3c([nH]c4ccccc34)[C@@](C(=O)OC)(c3cc4c(cc3OC)N(C=O)[C@H]3[C@@](O)(C(=O)OC)[C@H](OC(C)=O)[C@]5(CC)C=CCN6CC[C@]43[C@@H]65)C2)C1 measurement_type=pIC50 quantitative_readout=8.40
molecular_string=O=S(=O)(c1ccc(-c2cnc(C3CC3)o2)cc1)N1CCCOc2ccc(F)cc21 measurement_type=pIC50 quantitative_readout=8.10
molecular_string=O=S(=O)(c1ccc(-c2cnc(C3CC3)o2)cc1)N1CCCOc2cc(F)ccc21 measurement_type=pIC50 quantitative_readout=7.85
molecular_string=COc1cccc2c1C(=O)c1c(O)c3c(c(O)c1C2=O)C[C@@](O)(C(=O)CO)C[C@@H]3O[C@H]1C[C@H](N)[C@H](O)[C@H](C)O1 measurement_type=pIC50 quantitative_readout=8.22
